Please go through the items and note down their CHRF288-11 %inh.
# System: CHRF288-11
# Design: species or system AML cell lines (8); Primary HTS, single concentration about 10 uM, Cell Titer Glo viability; log10 luminescence, per cent inhibition relative to cycloheximide control
# reported_conditions: 72 h, relative to cycloheximide control, log10 luminescence; inhibitor
Where a name gives a salt, the structure may show the parent alone.
Give bare numbers, in %.

For orientation, consider the following solved cases.
1) NS(=O)(=O)c1cc2c(cc1Cl)NC(C1CC3C=CC1C3)NS2(=O)=O (centres unmarked) [SJ000287770-4, CYCLOTHIAZIDE]
-0.8826
2) CC1=C(C(=O)Nc2ccc3[nH]ncc3c2)C(c2ccc(F)cc2)N=C(c2ccc(C(F)(F)F)nc2)N1 (centres unmarked)
5.88
3) Nc1ncnc2occ(-c3ccc(NC(=O)Nc4cccc(C(F)(F)F)c4)cc3)c12
45.6
4) COC(C)(C)CCCC(C)C/C=C/C(C)=C/C(=O)O (centres unmarked)
30.54
5) N#Cc1c(NC(=O)CN2CCOCC2)sc2c1CCCC2
1.546
6) Cn1cc(C2=C(c3cn(C)c4cc(Cl)ccc34)C(=O)NC2=O)c2ccccc21
127
7) CC[C@@H]([C@H](C)O)n1ncn(-c2ccc(N3CCN(c4ccc(OC[C@@H]5CO[C@@](Cn6cncn6)(c6ccc(F)cc6F)C5)cc4)CC3)cc2)c1=O
4.654
8) Cc1ccc(/C=C2\CNC/C(=C\c3ccc(C)cc3)C2=O)cc1 [SJ000772404-1, NSC 632839 HYDROCHLORIDE]
82.45

Could you tell me CHRF288-11 %inh for each of these compounds? They are listed below.
1. O=c1[nH]c2nc(NC3CCOCC3)ncc2cc1Oc1ccc(F)cc1F
2. COc1cc(Nc2ncc3c(C)nc(-c4cccc(Oc5ccccc5)c4)n3n2)cc(OC)c1OC
3. c1ccc(COc2ccc(Nc3ncnc4ccc(-c5ccco5)cc34)cc2)cc1
4. CN1CCN(CCc2cccc(C(=O)c3cnn(-c4ccc(F)cc4)c3N)c2)CC1
5. Cc1cc(NS(=O)(=O)c2ccc(N)cc2)no1

Completion:
2.671
8.926
-4.196
-2.499
6.539

Record CHRF288-11 %inh for all entries; do not skip any.
1. COc1cc(C(C)C)c2c(c1)S(=O)(=O)N(COc1cc(=O)n3cccc(OCCN4CCCCC4)c3n1)C2=O
2. FC(F)(F)CNc1nccc(-c2cnn3ncccc23)n1
3. CC(C)c1ccc(Nc2nccc(-c3cnn4ncccc34)n2)cc1
4. O=C1OC(=O)C(c2c[nH]c3ccccc23)=C1c1c[nH]c2ccccc12

Completion:
1. -3.004
2. 8.25
3. 27.16
4. 5.422

These entries and their values trace back to paper PMC6522510.
